For each record, write down the corresponding pIC50.
Biological target: Vascular endothelial growth factor receptor 2 (Homo sapiens, UniProt P35968)
Sequence (P35968 whole entry): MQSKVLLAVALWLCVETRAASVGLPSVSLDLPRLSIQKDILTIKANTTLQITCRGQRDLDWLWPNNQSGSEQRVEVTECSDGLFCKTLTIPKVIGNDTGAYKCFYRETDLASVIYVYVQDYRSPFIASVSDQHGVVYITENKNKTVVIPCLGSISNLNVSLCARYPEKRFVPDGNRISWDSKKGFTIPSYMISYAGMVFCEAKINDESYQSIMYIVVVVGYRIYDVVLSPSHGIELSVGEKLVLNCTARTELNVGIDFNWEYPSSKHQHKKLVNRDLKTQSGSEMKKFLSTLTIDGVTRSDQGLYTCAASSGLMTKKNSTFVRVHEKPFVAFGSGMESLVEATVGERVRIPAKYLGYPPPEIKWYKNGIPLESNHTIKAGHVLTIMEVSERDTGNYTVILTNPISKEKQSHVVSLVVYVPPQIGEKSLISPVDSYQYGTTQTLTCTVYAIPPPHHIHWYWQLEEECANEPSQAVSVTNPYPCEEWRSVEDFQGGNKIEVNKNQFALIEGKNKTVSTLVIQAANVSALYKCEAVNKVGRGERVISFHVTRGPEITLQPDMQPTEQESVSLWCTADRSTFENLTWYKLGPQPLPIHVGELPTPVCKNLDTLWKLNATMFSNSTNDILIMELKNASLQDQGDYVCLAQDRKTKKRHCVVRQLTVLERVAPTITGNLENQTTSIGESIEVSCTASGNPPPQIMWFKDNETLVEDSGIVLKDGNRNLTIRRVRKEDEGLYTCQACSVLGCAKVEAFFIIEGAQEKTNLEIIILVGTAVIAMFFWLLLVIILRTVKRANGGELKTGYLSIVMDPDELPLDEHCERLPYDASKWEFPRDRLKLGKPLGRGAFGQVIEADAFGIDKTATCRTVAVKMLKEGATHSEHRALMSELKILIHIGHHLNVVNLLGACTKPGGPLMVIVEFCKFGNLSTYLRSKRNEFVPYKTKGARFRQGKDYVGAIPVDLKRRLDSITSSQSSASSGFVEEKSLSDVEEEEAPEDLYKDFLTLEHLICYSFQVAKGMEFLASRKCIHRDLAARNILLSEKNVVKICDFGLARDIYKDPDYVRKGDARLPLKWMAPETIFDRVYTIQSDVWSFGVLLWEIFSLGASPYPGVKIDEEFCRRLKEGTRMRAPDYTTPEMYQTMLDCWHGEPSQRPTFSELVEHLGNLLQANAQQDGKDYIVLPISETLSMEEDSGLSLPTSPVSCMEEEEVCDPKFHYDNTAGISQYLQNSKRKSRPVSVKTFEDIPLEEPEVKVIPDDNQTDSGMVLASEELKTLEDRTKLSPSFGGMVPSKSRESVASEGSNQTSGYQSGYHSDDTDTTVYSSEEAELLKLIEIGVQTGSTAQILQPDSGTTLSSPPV
Experiment: Inhibition of recombinant VEGFR2 using poly(Glu,Tyr)4 as substrate assessed as inhibition of [33P]Phosphate incorporation into substrate after 80 mins by scintillation counting
Lab note: report pIC50 as minus log10 of the concentration in molar units, number only.

So for Cn1c(-c2ccnc(Nc3cccc(O)c3)n2)nc2ccccc21 , the logged pIC50 turned out to be 5.49

Briefly, pIC50 measured for Cn1c(=O)c2ccc(-c3nc4ccccc4n3C)nc2n(C)c1=O : 4.07

Value of measured pIC50 for the entry COc1ccc(Nc2nccc(-c3nc4ccccc4n3C)n2)cc1 : 4.36

So, Cn1c(-c2ccnc(Nc3ccc(O)c(Cl)c3)n2)nc2ccccc21 ? Its pIC50 was 5.12

For Cn1c(-c2ccnc(Nc3ccc(N4CCOCC4)cc3)n2)nc2ccccc21 the compound record lists pIC50 as 4.16

pIC50 reading for Cc1ccc(Nc2nccc(-c3nc4ccccc4n3C)n2)cc1 : 4.60

The compound listed as Cn1c(-c2ccnc(Nc3ccc(Cl)cc3)n2)nc2ccccc21 has a reported pIC50 of 4.42

Given item Cn1c(-c2ccnc(Nc3ccc(O)cc3)n2)nc2ccccc21 , the value recorded as its pIC50 is 5.04

pIC50 reported for this compound Cn1c(-c2ccnc(Nc3ccccc3)n2)nc2ccccc21 : 4.87
